The measured values listed here are drawn from patent US20170107207A1.

# study-system: TIP48/TIP49 complex (Homo sapiens, UniProt Q9Y230+Q9Y265)
# Sequence (Q9Y230 whole entry): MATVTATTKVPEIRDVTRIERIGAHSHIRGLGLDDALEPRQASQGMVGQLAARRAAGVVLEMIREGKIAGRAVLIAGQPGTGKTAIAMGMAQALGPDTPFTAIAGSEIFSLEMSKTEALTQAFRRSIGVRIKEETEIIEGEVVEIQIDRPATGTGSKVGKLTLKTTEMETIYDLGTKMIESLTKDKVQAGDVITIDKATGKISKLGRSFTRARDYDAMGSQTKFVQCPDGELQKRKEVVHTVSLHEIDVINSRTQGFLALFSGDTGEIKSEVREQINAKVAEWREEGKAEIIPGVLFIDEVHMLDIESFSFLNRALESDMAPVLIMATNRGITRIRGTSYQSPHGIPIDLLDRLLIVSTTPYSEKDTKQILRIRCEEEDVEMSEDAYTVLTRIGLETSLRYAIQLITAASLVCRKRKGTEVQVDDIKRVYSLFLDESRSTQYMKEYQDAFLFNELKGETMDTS
# Sequence (Q9Y265 whole entry): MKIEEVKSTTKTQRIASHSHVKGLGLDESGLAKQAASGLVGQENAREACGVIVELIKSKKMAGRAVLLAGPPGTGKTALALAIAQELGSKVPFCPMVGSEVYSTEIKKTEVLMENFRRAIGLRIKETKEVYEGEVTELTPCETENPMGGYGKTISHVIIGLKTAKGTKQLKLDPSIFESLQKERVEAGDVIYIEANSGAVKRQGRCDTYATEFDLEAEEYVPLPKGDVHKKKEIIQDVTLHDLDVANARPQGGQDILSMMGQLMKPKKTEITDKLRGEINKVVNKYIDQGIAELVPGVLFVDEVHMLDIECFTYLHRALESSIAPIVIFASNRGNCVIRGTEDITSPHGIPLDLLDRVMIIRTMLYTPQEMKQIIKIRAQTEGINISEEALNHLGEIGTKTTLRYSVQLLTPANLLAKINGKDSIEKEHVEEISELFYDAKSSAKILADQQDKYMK
# assay-summary: ATPase assay of TIP48/TIP49 complex (ADP-Glo)
# conditions: concentration at which the ATPase activity was inhibited by 50%
pIC50: −log10 of the molar value. Structures can show the parent of a compound that is named as a salt.
assay-metric: pIC50

Study these solved cases before continuing.
- compound: "CCOc1ncc(Cl)cc1C(=O)NCC(C)(C)CC(=O)Nc1c(COC)n(C)n(-c2ccccc2)c1=O"
  pIC50: 7.39
- compound: "CCOc1cc(F)c(Cl)cc1C(=O)NCC(C)(C)CC(=O)Nc1c(CCCN(C)C)n(C)n(-c2ccccc2)c1=O [Example 64, monohydrochloride]"
  pIC50: 7.00
- compound: "CCOc1ccc(Cl)cc1C(=O)NCC(C)(C)CC(=O)Nc1c(CCN(CC)CC)n(C)n(-c2ccccc2)c1=O"
  pIC50: 7.22

[A] CCOc1ccc(Cl)cc1C(=O)NCC(C)(C)CC(=O)Nc1c([C@H](C)CN(C)C)n(C)n(-c2ccccc2)c1=O
[B] CCOc1cc(F)c(Cl)cc1C(=O)NCC(C)(C)CC(=O)Nc1c(CCN(C)C)n(CC)n(-c2ccccc2)c1=O
[C] Cc1cc2cc(Cl)cc(C(=O)NCC(C)(C)CC(=O)Nc3c(C)n(C)n(-c4ccccn4)c3=O)c2o1
[D] COc1ccc(Cl)cc1NC(=O)CC(C)(C)CC(=O)Nc1cn(C)n(-c2ccccc2)c1=O
List from greatest to least pIC50. # answer = labels listed in requested order
B, C, A, D

[P] CCOc1cc(F)c(Cl)cc1C(=O)NCC(C)(C)CC(=O)Nc1c(CCCCN(C)C)n(C)n(-c2ccccc2)c1=O
[Q] CCOc1cc(F)c(Cl)cc1C(=O)NCC(C)(C)CC(=O)Nc1c(C)n(C)n(-c2ccccc2)c1=O
[R] CCOc1ncc(Cl)cc1C(=O)NCC(C)(C)CC(=O)Nc1c([C@H](C)CN(C)C)n(C)n(-c2ccccc2)c1=O
List from greatest to least pIC50. # answer = labels listed in requested order
Q, R, P

====

# System: human lymphoma cell line RAMOS cells
# assay-summary: Cell growth inhibition test using RAMOS cell, MTT assay
# Format: cell-based
# conditions: 50% growth inhibition concentration
assay-metric: GI50 (nM)

Study these solved cases before continuing.
- compound: "COc1ccc(Cl)cc1NC(=O)CC(C)(CC(=O)Nc1c(C)n(C)n(-c2ccccc2)c1=O)OC (stereo not shown) [Example 104]"
  measurement-units: "nM"
  GI50: 1300
- compound: "Cc1c(NC(=O)CC(C)(C)CC(=O)Nc2cc(Cl)ccc2OC(C)C)c(=O)n(-c2cccc(C(F)(F)F)c2)n1C [Example 147]"
  measurement-units: "nM"
  GI50: 40
- compound: "COc1ccc(Cl)cc1C(=O)NCC(C)(C)CC(=O)Nc1c(CN(C)C)n(C)n(-c2ccccc2)c1=O [Example 5]"
  measurement-units: "nM"
  GI50: 180
- compound: "COc1ccc(Cl)cc1C(=O)NCC(C)(C)C(O)C(=O)Nc1c(C)n(C)n(-c2ccccc2)c1=O (stereo not shown) [Example 112]"
  measurement-units: "nM"
  GI50: 680
- compound: "COc1cc(F)c(Cl)cc1C(=O)NCC(C)(C)CC(=O)Nc1c(CN(C)C)n(C)n(-c2ccccc2)c1=O [Example 6]"
  measurement-units: "nM"
  GI50: 170

[I] CCOc1ncc(Cl)cc1C(=O)NCC(C)(C)CC(=O)Nc1c(C)n(C)n(-c2cccc(C)n2)c1=O [Example 153]
[II] CCOc1ccc(Cl)cc1C(=O)NCC(C)(C)CC(=O)Nc1c(CCNC(C)C)n(C)n(-c2ccccc2)c1=O [Example 18]
Param pair: I , II . Output: the one whose GI50 is numerically greater. The response must carry the label of the picked entry.
II
